experimental target: His-His-(EK)-hsBCLXL(2-197)[N197C] (Homo sapiens (Human), UniProt Q07817, N197C)
Sequence (Q07817 2-197 N197C): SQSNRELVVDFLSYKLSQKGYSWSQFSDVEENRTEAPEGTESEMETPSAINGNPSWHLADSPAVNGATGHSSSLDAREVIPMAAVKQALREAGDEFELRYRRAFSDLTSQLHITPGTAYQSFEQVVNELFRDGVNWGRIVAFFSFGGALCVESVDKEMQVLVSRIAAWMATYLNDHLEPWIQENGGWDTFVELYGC
method description: Fluorescence quenching assay
condition set: 1 nM Cy5-labelled protein, 400 nM PUMA peptide, 2 hours at 23° C.; KI determined from IC50
result type: Ki (pM)

                                 smiles_repr  unit_name  measured_result
 0  Cc1c(Nc2nc3ccccc3s2)nnc2c1CCCN2c1nc(C(=O)O)c(CCCOc2ccc(C#CCNCCCO)cc2F)s1         pM              4.6
 1  Cc1c(Nc2nc3ccccc3s2)nnc2c1CCCN2c1ccc(-c2cnn(CC34CC5(C)CC(C)(C3)CC(OCCN(C)C)(C5)C4)c2C)c(C(=O)O)n1         pM              5.6
 2  Cc1c(Nc2nc3ccccc3s2)nnc2c1CCCN2c1ccc(-c2cnn(CC34CC5(C)CC(C)(C3)CC(OCCNCCOCCO)(C5)C4)c2C)c(C(=O)O)n1         pM              1.4
 3  Cc1c(Nc2nc3ccccc3s2)nnc2c1CCCN2c1nc(C(=O)O)c(CCCOc2cc3c(cc2F)CCN(C)C3)s1         pM               12
 4  Cc1c(Nc2nc3ccccc3s2)nnc2c1CCCN2c1ccc(-c2cnn(CC34CC5(C)CC(C)(C3)CC(OCCN3CCN(C)CC3)(C5)C4)c2C)c(C(=O)O)n1         pM              1.8
 5  Cc1c(Nc2nc3ccccc3s2)nnc2c1CCCN2c1nc(C(=O)O)c(CCCOc2ccc(C#CCN3CCCCC3)cc2F)s1         pM               15
 6  Cc1c(Nc2nc3ccccc3s2)nnc2c1CCCN2c1nc(C(=O)O)c(CCCOc2ccc(C#CCN3CCC(F)(F)CC3)cc2F)s1         pM               64
 7  Cc1c(Nc2nc3ccccc3s2)nnc2c1CCCN2c1ccc(-c2cnn(CC34CC5(C)CC(C)(CC(CCCN(C)C)(C5)C3)C4)c2C)c(C(=O)O)n1         pM              1.9
 8  Cc1c(Nc2nc3ccccc3s2)nnc2c1CCCN2c1nc(C(=O)O)c(CCCOc2ccc(C#CCN(C)C)cc2)s1         pM              8.5
 9  Cc1c(Nc2nc3ccccc3s2)nnc2c1CCCN2c1nc(C(=O)O)c(CCCOc2ccc(OCCN3CCCC3)cc2)s1         pM              1.3
10  Cc1c(Nc2nc3ccccc3s2)nnc2c1CCCN2c1nc(C(=O)O)c(CCCOc2ccc(CCCN(C)C)cc2F)s1         pM              1.7
11  Cc1c(Nc2nc3ccccc3s2)nnc2c1CCCN2c1ccc(-c2cnn(CC34CC5(C)CC(C)(CC(CCCNCCCO)(C5)C3)C4)c2C)c(C(=O)O)n1         pM              2.7
12  Cc1c(Nc2nc3ccccc3s2)nnc2c1CCCN2c1nc(C(=O)O)c(CCCOc2ccc(C#CCN(C)CC[C@H](O)CO)cc2F)s1         pM              5.9
